This collection of values is drawn from the supplement of paper PMC9170038.

Please provide measured apparent KD of K4 kissing-loop reporter for the entries that follow.
# System: K4 kissing-loop RNA reporter;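 note: bound reporter read as fluorescence of individual clusters on recovered sequencing chips by microscopy, with normalized cluster intensities fitted with a binding model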
# TEST METHOD NOTES: apparent KD of K4 kissing-loop reporter; higher = weaker reporter binding
# RUN CONDITIONS: Eterna round: R107; input ligand: FMN 200 uM
Please respond with the number in nM and leave the unit unwritten.

INPUT: Item under review: AAGAGAUCGAGAAGGAGCGAGAAAGCUAGUACAUAUGUACUAGCAAAGCAGUGAUGUUGCACUCAGGUAGGUCGCUCGAUCUCAA [AK1 SS Arginine B] . Reported apparent KD of K4 kissing-loop reporter?
OUTPUT: 395

INPUT: Record request: apparent KD of K4 kissing-loop reporter value, item UGCACGUAGUGAUGUUACAGCAAGUUUAUGAAGGAUAUGAGGUUAGUCAGAAGGUCAGCCGUCUCGUUGUAAGCACCUUAUCAUU [theeternabot_exclusion_KL_FMN_A_14]
OUTPUT: 305

INPUT: # input sequence: UGUAUGUGUCAGCGAGUGAUGUUCGACGAUACCAGACUCGAUAGAGUCCCUUGGCAGCGUAAUGCAUGCCAAACUGGCACAUACU [#SwitchBubble 13 #K4Early] ; wanted: its apparent KD of K4 kissing-loop reporter
OUTPUT: 657

INPUT: I am curious: what apparent KD of K4 kissing-loop reporter value has been reported for AACGCUGGUGAAUAACACUAGCGAAAAUUCCGAGGACCGGUACGGCCGCCACUCGGCUAACUGCGAGUGAUGUUCGAUAAUAAAA [Mat - Mod of OpenEnded 3 - D9] ?
OUTPUT: 80.3

INPUT: Give its apparent KD of K4 kissing-loop reporter value. Item: `AAGCAGUCACUCAAAGCCAUCGAAGAUGGUCGAGGACCGGUACGGCCGCCACUCGGAGUGAUGUUCCGAAGACUGCAAAAUAAAA`
OUTPUT: 407

====

Could you please report measured apparent KD of MS2 coat protein for the items listed next?
# System: MS2 coat protein
# TEST METHOD NOTES: apparent KD of MS2 coat protein, switch OFF state (with FMN for OFF switches, without FMN for ON switches); designed switch direction (-1 OFF switch, 1 ON switch): 1; higher = weaker reporter binding
# RUN CONDITIONS: FMN input: 0 or 200 uM; Eterna round: R93 (includes R88 designs)

INPUT: Please look up its apparent KD of MS2 coat protein: GUGAGACAUGAGGAUCACCCAUGUACGCGUCAGCAAGGAUAUGGGAAUAAAAGACAGAGACCAGAAGGUGCUGUUG [Arzaerri]
OUTPUT: 67.5 nM

INPUT: May I ask what apparent KD of MS2 coat protein has been recorded for AAUAAACAUGAGGAUCACCCAUGUAAAUGGGUACAAGGAUAUGCGAAAAGAAACAAAGAAGCAGAAGGUGUAAAGA [Ex5 sub 2] ?
OUTPUT: 432 nM

INPUT: Value lookup for apparent KD of MS2 coat protein; key = AAACCACAUGAGGAUCACCCAUGUAAGAUAUACAUAGGAUAUGCGAAAAGAAACAAAGAAGCAGAAGGGUGGAAAA [75%, Ex sub1, 15]
OUTPUT: 54.9 nM

INPUT: Query (sequence): AAAAGACAUGAGGAUCACCCAUGUAAAAACGUAGGAGGAUAUGUCGUGAAAAAAGACUUGACAGAAGGCCUGUGUC [SS1 - 35] ; field requested: apparent KD of MS2 coat protein
OUTPUT: 39 nM

INPUT: So what's the measured apparent KD of MS2 coat protein for this one? AAAAAACAUGAGGAUCACCCAUGUAAAAAAAACACAGGAUAUCCAAAAAAAAAAAAAAAAGGAGAAGGGUGAAAAA [Nob - Jieux - Same State 1]
OUTPUT: 48.3 nM

INPUT: I have this sequence here, UAAAAACAUGAGGAUCACCCAUGUGAGAACAUGGGAGGAUAUACAAAGACGAAAGUCGAAGUAGAAGGCCUAAAAU [Mat - Same State 1 - Mod - D173] , and I need its recorded apparent KD of MS2 coat protein.
OUTPUT: 25.7 nM

INPUT: // returns reported apparent KD of MS2 coat protein for input AAAAAACAUGAGGAUCACCCAUGUAUGAUAACAUCAGGAUAUUGGCUUGACUAUGUCUUACAAGAAGGGAUGAAAA [Same State 1.3e (Same State 1 - Omei 2 )]
OUTPUT: 48.6 nM

INPUT: I have this sequence here, GAGGACCUAGGAUAGGAUAUGUGAAUAAUUACAUGAGGAUCACCCAUGUCCAUUUAUAUGGGAACAUAGAAGGGUUUUGGUUAUC [SameState2 Malc#39] , and I need its recorded apparent KD of MS2 coat protein.
OUTPUT: 180 nM

INPUT: Item AUUUUACAUGAGGAUCACCCAUGUUUUGGUGGAUCAGGAUAUAGAUUGAAUGAGUUUUAGCUAGAAGGGAUAUAUA [JR_SS001_Sub506] has what recorded apparent KD of MS2 coat protein?
OUTPUT: 110 nM

INPUT: Given the sequence AACAAUCUAUCUGAGGAUAUGUGUCAAAAGACAUGAGGAUCACCCAUGUAAAAACAUGAAAAGACACAGAAGGCAGAUAGAUUGA [SS2: 1153] , what is its reported apparent KD of MS2 coat protein?
OUTPUT: 44.2 nM

INPUT: Suppose we examine the sequence AAAAAAUAAAAAAAGGAUAUAAUGCUACAGACAUGAGGAUCACCCAUGUAGGUAGCAUUAAUAAAAAAGAAGGAAAAAUAAAAAA [SS2: MS2 32] ; what apparent KD of MS2 coat protein value has been reported?
OUTPUT: 15.3 nM

INPUT: May I ask what apparent KD of MS2 coat protein has been recorded for AGAAAACAUGAGGAUCACCCAUGUAGAAAUAUGGGAGGAUAUACAUAGACGAAAGUCAUAGUAGAAGGCCUAAAGA [Mat - Same State 1 - Meechl mod - D128] ?
OUTPUT: 49.4 nM

INPUT: If you can, please state the reported apparent KD of MS2 coat protein value of GAAAAACAUGAGGAUCACCCAUGUGGAAAUAUGGAAGGAUAUACAAAGACGGAAGUCAAAGUAGAAGGUCUAAAAG [Mat - Same State 1 - Eli mod - D19] .
OUTPUT: 29.4 nM

INPUT: Consider the sequence shown here: AGAAAUAAAUGAGAGGAUAUCCAAAAGAAAACAUGAGGAUCACCCAUGUAAAAGAAAAUAAAGUGGGAGAAGGCUCGAAAUAAAG [80%, More Helter Skelter 2] What is its recorded apparent KD of MS2 coat protein?
OUTPUT: 43.5 nM

INPUT: Can you look up the measured apparent KD of MS2 coat protein of GGUACAUCUAGUUAGGAUAUCAGAUGUAAGACAUGAGGAUCACCCAUGUCCUAAGAAUAGGUAACUGAGAAGGAACAGGGAGUCC [JR_SS002_Sub417] for me?
OUTPUT: 29.8 nM

INPUT: Bench note: what apparent KD of MS2 coat protein did AAGAAACAUGAGGAUCACCCAUGUAGAAAUAUGGGAGGAUAUACGAAGACGAAAGUCAAAGUAGAAGGCCUAAGAA [Mat - Same State 1 - Eli mod - D105] show?
OUTPUT: 82 nM
